Reference source for all entries: the supplement of paper PMC11451515

test system: P12-Ichikawa; assay: cell viability relative to DMSO control; higher = less cytotoxic; details: HPLM + 10% dialyzed FBS; 48 h; 5.12 µM

chemical structure | unit label | cell viability
N[S+]([O-])(=O)C1=CC=C(NC/2=C/C(=O)C3=CC=CC=C3C2=O)C=C1 | % | 117
C[S+](=O)([O-])Nc1ccc([N+](=O)[O-])cc1Oc1ccccc1 | % | 109
CNCCCC12CCC(c3ccccc31)c1ccccc12 | % | 87.8
N[S+]([O-])(=O)C1=C(Cl)C=C2\N=C/N[S+]([O-])(=O)C2=C1 | % | 110
CN[C@@H]1[C@@H](O)[C@@H](O[C@@H]2[C@@H](O)[C@H](O[C@H]3O[C@H](CN)[C@@H](O)[C@H](O)[C@H]3O)[C@@H](N)C[C@H]2NC(=O)[C@@H](O)CN)OC[C@]1(C)O | % | 110
